// reported IC50 for each item listed
Molecular target: Protein deacetylase HDAC6 (Homo sapiens)
Sequence (Q9UBN7 whole entry): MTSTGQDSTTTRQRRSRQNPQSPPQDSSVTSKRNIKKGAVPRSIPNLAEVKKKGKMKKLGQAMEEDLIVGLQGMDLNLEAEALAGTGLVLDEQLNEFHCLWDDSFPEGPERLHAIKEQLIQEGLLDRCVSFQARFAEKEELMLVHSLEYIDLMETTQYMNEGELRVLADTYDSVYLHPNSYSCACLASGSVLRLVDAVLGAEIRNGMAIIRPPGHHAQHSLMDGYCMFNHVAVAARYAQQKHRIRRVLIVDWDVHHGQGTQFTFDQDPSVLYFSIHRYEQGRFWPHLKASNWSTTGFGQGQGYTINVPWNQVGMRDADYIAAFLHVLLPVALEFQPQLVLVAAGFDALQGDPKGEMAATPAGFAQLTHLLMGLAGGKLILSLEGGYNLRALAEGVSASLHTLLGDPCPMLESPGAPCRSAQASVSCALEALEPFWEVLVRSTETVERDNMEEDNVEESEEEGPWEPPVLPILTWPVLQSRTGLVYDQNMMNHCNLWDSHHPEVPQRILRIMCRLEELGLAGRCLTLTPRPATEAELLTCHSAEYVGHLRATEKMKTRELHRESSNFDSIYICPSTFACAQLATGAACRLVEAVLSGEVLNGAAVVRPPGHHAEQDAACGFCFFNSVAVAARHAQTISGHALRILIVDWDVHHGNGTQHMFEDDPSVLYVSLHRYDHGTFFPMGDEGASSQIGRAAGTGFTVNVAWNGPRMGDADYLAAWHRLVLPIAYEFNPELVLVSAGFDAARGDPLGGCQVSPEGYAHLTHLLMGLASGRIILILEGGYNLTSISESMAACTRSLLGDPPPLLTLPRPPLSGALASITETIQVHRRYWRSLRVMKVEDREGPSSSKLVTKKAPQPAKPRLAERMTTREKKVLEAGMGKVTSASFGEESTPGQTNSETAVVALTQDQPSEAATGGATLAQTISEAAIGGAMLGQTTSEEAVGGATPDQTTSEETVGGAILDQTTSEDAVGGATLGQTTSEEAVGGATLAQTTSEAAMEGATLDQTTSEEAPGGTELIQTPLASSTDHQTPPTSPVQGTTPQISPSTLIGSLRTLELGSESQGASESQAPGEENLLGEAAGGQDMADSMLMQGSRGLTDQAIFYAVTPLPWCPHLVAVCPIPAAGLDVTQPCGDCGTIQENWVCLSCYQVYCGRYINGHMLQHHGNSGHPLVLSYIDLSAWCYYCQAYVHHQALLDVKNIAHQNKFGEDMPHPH
Give the value, in units of nM, as a plain number.

O=C(CCCCCCn1cc(-c2ccc3ncnc(Nc4cccc(Cl)c4F)c3c2)nn1)NO : 3.2

Consider now this further compound.
q: Suppose we examine the compound "COc1cc(Nc2ncnc3ccc(-c4cn(CCCCCC(=O)NO)nn4)cc23)ccc1Oc1ccccc1" ; what IC50 value has been reported?
a: 18.5
